The following compounds are shown together with reported EC50 values.
- System: HIV-1/LAI
- experimental_protocol: Antiviral activity against wild-type strain in acutely infected MT4 cells
- Assay type: cell-based
- condition_description: Human immunodeficiency virus 1, table prints no unit (EC50 in μM), read-out: Median EC50
readout: EC50 (µM)

1. Cc1cc(C#N)cc(C)c1Oc1nc(Nc2ccc(C#N)cc2)nc(N)c1Br [Compound 1] : 0.0014
2. Cc1ccnc2c1NC(=O)c1cccnc1N2C1CC1 [Nevirapine] : 0.0763
3. O=C1Nc2ccc(Cl)cc2[C@@](C#CC2CC2)(C(F)(F)F)O1 [Efavirenz] : 0.001
